Reference source: the supplement of paper PMC9732359

# measurementDescription: protein stability index of a GFP-peptide fusion (yeast GPS) (PSI 1-4); higher = more stable; sorted into four equal gates, so the index is relative within each strain
# conditionLabel: san1∆
Record label 1 whenever protein stability index is at 3 or higher; record label 0 when lower.

>>> print(df.to_string())
                     primarysequence  grouplabel
0          ENPAFLPGTNNNSNSNN [SEC65]     label 0
1           SLGIAQPKGVILYGPPG [RPT6]     label 0
2           MIELICSSATVPKHMLD [AAR2]     label 0
3           ECFISMQSTSPAVKQWD [SWI1]     label 0
4           NGKDSEIMYTGVSISVS [SMC3]     label 0
5  PAFSNSNGFNNVTFGSK [YMR153W/NUP53]     label 1
6           SNEEQRNLDSATLKEIK [SMC3]     label 1
